TEST TARGET: UniProtKB Q9NYK1
PROTOCOL DETAILS: TLR7 inhibition reporter assay (HEK-Blue SEAP)
CONDITION: HEK-Blue cells overexpressing human TLR7, gardiquimod 7.5 μM, 22 hour incubation
READOUT: IC50 (µM)
One number for each entry, in µM.

> print(dat)
                                   molecule       test.target   number
1  COc1cc(-c2ccc3c(c2)[nH]c(=O)n3C2CCN(C)CC2)cn2ncnc12 [Example 74]  UniProtKB Q9NYK1    0.948
2  COC[C@@H]1CCN(C2CCC(n3c(=O)[nH]c4cc(-c5cc(OC)c6ncnn6c5)c(C(C)C)cc43)CC2)C1 (single isomer, unassigned) [Example 290]  UniProtKB Q9NYK1  0.00138

Would you mind giving IC50 for every molecule in the list below?
1. CCC(CC)CN1CCC(n2c(=O)[nH]c3cc(-c4cc(OC)c5ncnn5c4)c(C(C)C)cc32)CC1 [Example 165]
2. CCc1cc2c(cc1-c1cc(OC)c3ncnn3c1)[nH]c(=O)n2[C@H]1CC[C@@H](NC2CCOCC2)CC1 [Example 166]
3. COc1c(C)c(-c2cc3[nH]c(=O)n(C4CCC(NCC5(S(C)(=O)=O)CC5)CC4)c3cc2C(C)C)cn2ncnc12 (single isomer, unassigned) [Example 259]
4. Cc1cc2c(cc1-c1cc(C)c3ncnn3c1)[nH]c(=O)n2[C@H]1CCCN(C)C1 [Example 11]

1: 0.0109; 2: 0.0019; 3: 0.0104; 4: 0.276

Consider the molecule COc1cc(-c2cc3[nH]c(=O)n([C@H]4CCCN(CC5CCOCC5)C4)c3cc2C(C)C)cn2ncnc12 [Example 125] and give its measured IC50. 0.0341

###

TEST TARGET: human TLR7 (Homo sapiens)
Sequence (Q9NYK1 27-1049): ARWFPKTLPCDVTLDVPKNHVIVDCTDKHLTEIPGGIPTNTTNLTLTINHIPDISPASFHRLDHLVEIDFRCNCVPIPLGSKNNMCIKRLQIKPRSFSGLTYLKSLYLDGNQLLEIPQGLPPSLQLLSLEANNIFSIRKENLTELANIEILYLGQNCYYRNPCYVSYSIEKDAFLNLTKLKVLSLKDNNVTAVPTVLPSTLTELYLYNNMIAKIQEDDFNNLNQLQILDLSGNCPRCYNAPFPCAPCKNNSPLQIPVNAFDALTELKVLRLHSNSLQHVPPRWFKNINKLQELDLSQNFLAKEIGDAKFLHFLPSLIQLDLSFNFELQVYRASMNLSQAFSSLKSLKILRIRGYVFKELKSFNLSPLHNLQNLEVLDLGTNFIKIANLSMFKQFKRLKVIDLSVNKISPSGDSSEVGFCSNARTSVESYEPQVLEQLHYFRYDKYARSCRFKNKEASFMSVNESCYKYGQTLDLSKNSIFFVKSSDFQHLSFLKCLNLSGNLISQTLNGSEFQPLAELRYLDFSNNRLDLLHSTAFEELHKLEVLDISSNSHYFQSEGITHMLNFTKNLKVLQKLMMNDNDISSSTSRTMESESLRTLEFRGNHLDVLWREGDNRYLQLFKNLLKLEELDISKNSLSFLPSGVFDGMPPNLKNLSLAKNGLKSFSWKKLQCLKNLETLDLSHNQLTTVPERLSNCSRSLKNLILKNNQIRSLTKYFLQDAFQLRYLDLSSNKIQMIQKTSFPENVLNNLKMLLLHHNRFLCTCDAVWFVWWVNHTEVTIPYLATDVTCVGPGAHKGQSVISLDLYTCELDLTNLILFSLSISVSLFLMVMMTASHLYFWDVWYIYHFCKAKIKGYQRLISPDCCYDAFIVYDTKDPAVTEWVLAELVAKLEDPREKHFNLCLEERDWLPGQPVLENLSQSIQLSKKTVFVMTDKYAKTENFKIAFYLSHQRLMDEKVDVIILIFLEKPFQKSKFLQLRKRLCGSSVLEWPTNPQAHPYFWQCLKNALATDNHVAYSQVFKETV
PROTOCOL DETAILS: TLR7 inhibition reporter assay (HEK-Blue SEAP)
CONDITION: HEK-Blue cells overexpressing human TLR7, gardiquimod 7.5 μM, 22 hour incubation
// returns condition not met unless IC50 is strictly below 7 nM, in which case condition met

Bench note: check whether `Cc1cc(-c2ccc3c(c2)[nH]c(=O)n3C2CCN(C)CC2)cn2ncnc12` shows IC50 below 7 nM condition not met

Decide: IC50 of Cc1cc2c(cc1-c1cc(C)c3ncnn3c1)[nH]c(=O)n2C1CCN(CC(=O)N(C)C)CC1 [Example 89] strictly below 7 nM? condition not met

Answer whether the compound `COc1cc(-c2cc3[nH]c(=O)n([C@H]4CCCN(C(C)C)C4)c3cc2C(C)C)cn2ncnc12` has IC50 strictly less than 7 nM condition met

API: query returns whether the compound falls strictly under 7 nM in IC50. Query: `Cc1cc2c(cc1-c1cc(C)c3ncnn3c1)[nH]c(=O)n2C1CCN(C(C)C)CC1` condition not met

Given COc1cc(-c2cc3[nH]c(=O)n(C4CCC(N5CCC(F)(F)CC5)CC4)c3cc2C(C)C)cn2ncnc12 (single isomer, unassigned) [Example 246] , is recorded IC50 strictly lower than 7 nM? condition met

###

TEST TARGET: human TLR8 (Homo sapiens, UniProt Q9NR97)
Sequence (Q9NR97 27-1041): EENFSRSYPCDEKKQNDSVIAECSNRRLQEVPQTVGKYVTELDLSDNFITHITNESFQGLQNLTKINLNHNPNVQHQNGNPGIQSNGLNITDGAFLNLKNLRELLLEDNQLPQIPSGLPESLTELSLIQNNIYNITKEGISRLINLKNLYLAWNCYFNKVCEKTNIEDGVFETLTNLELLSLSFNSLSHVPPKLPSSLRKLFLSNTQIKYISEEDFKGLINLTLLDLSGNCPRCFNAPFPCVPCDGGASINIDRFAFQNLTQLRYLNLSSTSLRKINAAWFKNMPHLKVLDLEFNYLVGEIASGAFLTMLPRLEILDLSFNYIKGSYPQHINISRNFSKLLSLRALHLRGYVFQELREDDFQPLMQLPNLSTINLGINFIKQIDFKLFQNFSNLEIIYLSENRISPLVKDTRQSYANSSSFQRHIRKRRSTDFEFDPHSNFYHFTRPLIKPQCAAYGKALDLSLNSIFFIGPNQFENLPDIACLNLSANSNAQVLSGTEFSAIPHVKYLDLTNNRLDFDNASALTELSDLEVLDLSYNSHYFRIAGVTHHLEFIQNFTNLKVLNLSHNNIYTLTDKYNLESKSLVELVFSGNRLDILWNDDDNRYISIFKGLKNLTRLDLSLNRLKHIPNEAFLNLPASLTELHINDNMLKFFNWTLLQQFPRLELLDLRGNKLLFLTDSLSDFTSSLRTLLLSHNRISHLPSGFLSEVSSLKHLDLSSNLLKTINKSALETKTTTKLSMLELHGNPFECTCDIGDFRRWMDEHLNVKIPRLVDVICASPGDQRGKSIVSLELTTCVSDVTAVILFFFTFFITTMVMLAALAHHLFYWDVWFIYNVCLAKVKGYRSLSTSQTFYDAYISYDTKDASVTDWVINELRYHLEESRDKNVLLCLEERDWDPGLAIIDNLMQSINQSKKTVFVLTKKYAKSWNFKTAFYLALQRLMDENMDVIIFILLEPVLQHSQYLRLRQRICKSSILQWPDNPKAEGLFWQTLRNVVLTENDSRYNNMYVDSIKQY
PROTOCOL DETAILS: TLR8 inhibition reporter assay (HEK-Blue SEAP)
CONDITION: HEK-Blue cells overexpressing human TLR8, R848 15.9 μM, 22 hour incubation
Record form. Attribute: pIC50. Fill in for each entry.
Numbers only, as −log10 of the molar value.

Some compounds with recorded pIC50:
> print(dat)
                                   compound  number
1  COc1cc(-c2cc3[nH]c(=O)n(C4CCC(N5CCC(F)(F)CC5)CC4)c3cc2C(C)C)cn2ncnc12 (single isomer, unassigned) [Example 247]    9.15
2  Cc1cc2c(cc1-c1cc(C)c3ncnn3c1)[nH]c(=O)n2[C@H]1CC[C@@H](N(C)C)CC1 [Example 19]    7.49
3  COc1cc(-c2cc3[nH]c(=O)n(C4CCCN(C(=O)CN(C)C)C4)c3cc2C)cn2ncnc12 (stereo not shown) [Example 105]    6.50
4  Cc1cc(-c2cc(C)c3ncnn3c2)cc2[nH]c(=O)n(C3CCN(C)CC3)c12 [Example 106]    6.82
5  COc1cc(-c2cc3[nH]c(=O)n(C4CCC(N5CCNC(=O)C5)CC4)c3cc2C(C)C)cn2ncnc12 (single isomer, unassigned) [Example 234]    7.98

# pIC50 lookup, item COc1cc(-c2cc3[nH]c(=O)n(C4CCC(N5CCCC5)CC4)c3cc2C(C)C)cn2ncnc12 (stereo not shown) [Example 231] 9.09

###

Kindly state pIC50 for each of the entries shown.
TEST TARGET: human TLR9 (Homo sapiens, UniProt Q9NR96)
Sequence (Q9NR96 26-1032): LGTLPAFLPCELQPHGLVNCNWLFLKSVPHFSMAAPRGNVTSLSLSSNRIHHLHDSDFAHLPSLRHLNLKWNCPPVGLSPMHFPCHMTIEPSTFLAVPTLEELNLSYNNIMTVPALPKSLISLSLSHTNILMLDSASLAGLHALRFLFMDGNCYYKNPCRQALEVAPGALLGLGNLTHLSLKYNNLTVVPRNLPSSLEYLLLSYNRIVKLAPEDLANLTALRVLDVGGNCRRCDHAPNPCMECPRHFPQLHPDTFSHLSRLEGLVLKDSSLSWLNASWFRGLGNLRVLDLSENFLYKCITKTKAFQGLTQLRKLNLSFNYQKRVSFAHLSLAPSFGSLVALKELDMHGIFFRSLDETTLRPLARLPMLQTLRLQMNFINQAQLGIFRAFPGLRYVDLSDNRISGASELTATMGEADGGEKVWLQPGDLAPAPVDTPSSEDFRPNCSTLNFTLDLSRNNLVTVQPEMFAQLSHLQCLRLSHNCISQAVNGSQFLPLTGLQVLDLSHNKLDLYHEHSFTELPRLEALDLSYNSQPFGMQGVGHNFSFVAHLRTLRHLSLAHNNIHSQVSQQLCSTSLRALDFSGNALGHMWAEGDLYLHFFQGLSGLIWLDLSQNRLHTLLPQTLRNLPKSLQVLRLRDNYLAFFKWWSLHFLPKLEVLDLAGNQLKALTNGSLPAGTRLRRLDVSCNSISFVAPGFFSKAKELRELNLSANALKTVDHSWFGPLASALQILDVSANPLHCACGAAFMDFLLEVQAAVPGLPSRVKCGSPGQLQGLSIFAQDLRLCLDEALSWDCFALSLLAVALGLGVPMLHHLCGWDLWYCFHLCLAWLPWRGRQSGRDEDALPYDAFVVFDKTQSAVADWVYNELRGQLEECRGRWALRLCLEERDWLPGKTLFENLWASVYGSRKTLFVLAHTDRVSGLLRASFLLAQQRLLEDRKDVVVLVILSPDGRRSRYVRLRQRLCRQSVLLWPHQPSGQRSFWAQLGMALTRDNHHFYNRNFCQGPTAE
PROTOCOL DETAILS: TLR9 inhibition reporter assay (HEK-Blue SEAP)
CONDITION: HEK-Blue cells overexpressing human TLR9, ODN2006 5 nM, 22 hour incubation
Numbers only, as −log10 of the molar value.

Would you please look over these solved cases?
> print(dat)
                                   compound  readout  number
1  Cc1cc2c(cc1-c1cc(C)c3ncnn3c1)[nH]c(=O)n2C1CCNCC1    pIC50    5.26
2  Cc1cc2c(cc1-c1cc(C)c3ncnn3c1)[nH]c(=O)n2[C@H]1CC[C@@H](NCCC(F)(F)F)CC1    pIC50    5.53
3  COc1cc(-c2ccc3c(c2)[nH]c(=O)n3C2CCN(CC3CCOC3)CC2)cn2ncnc12 (centres unmarked)    pIC50    5.32

I would be grateful if you could provide pIC50 for each of the following entries.
1. COc1cc(-c2cc3[nH]c(=O)n([C@H]4CCCN(CC(C)C)C4)c3cc2C(C)C)cn2ncnc12
2. CCc1cc2c(cc1-c1cc(OC)c3ncnn3c1)[nH]c(=O)n2[C@@H]1CCCN(CCOC)C1
3. CCc1cc2c(cc1-c1cc(OC)c3ncnn3c1)[nH]c(=O)n2[C@@H]1CCCN(CC2CCCC2)C1
4. COc1cc(-c2cc3[nH]c(=O)n(C4CCN(C(C)C)CC4)c3cc2C(C)C)cn2ncnc12

5.43
4.82
4.90
4.81
